These data points were gathered from PubChem BioAssay AID1159580.

methodNotes: chemical genetic growth profiling, strain panel (AID 1159580);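 further: tested at 20 µM; growth read once vehicle control cultures reached saturation at 30 °C; 1 = growth at the plate median or of vehicle wells; lower values mean less growth of the strain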
conditionLabel: S. cerevisiae deletion strains, growth OD, locus YIL066C, strain RNR3, hits give low values
Out of some 5,500 compounds screened, about 2,000 (36%) were called active. Another 18% or so got no clear call; they are omitted. Some of the results follow.
normalized growth under 1 gets true (1), anything at or over 1 gets false (0).

>  <compound>
COc1cc(O)cc(OC)c1OC

>  <answerLabel>
false (0)

$$$$
>  <compound>
O=C(O)[C@H](O)[C@@](O)(Cc1ccc(O)cc1)C(=O)O

>  <answerLabel>
false (0)

$$$$
>  <compound>
COc1cc2c(cc1OC)[C@@H]1C(=O)c3ccc4c(c3O[C@@H]1CO2)CC(C(C)C)O4 (stereo partly drawn)

>  <answerLabel>
true (1)

$$$$
